Data credit: patent US9315494B2

Please provide measured IC50 for the entries that follow.
- Test system: IFNα-stimulated STAT-dependent luciferase reporter in Kit225 T cells
- measurement.description: Kit225 T cell assay, IFNα stimulated STAT-dependent luciferase reporter
- Format: cell-based, human
- measurement.setup: Kit225 T cells, 200 U/mL human recombinant IFNα, 5-6 hours, luciferase; read-out: IFNα (Kit225 T Cell Inhibition Data)
Number in nM, nothing else.

Request: Request the reported IC50 associated with CNC(=O)c1cnc(Nc2ccccn2)cc1Nc1ccccc1C(N)=O
Result: 240

Request: Request the reported IC50 associated with CNC(=O)c1cnc(Nc2ccc(F)cn2)cc1Nc1ccc(N2CCOCC2)cc1OC
Result: 2580

Request: Request the reported IC50 associated with CNC(=O)c1cnc(Nc2ccc(F)cn2)cc1Nc1ccccc1O
Result: 2410

Request: Request the reported IC50 associated with CNC(=O)c1cnc(Nc2ccc(F)cn2)cc1Nc1cccc2ccccc12
Result: 6470

Request: Request the reported IC50 associated with CNC(=O)c1cnc(Nc2ccc(F)cn2)cc1Nc1cccc(F)c1S(C)(=O)=O
Result: 1680

Request: Request the reported IC50 associated with [2H]C([2H])([2H])NC(=O)c1cnc(Nc2cc(C)nc(C)n2)cc1Nc1cccc(-c2cnn(C)c2)c1OC
Result: 8.77

Request: Request the reported IC50 associated with CNC(=O)c1cnc(Nc2ccc(-n3cc(F)ccc3=O)cn2)cc1Nc1ccc(Cl)cc1OC
Result: 180

Request: Request the reported IC50 associated with CNC(=O)c1cnc(Nc2ccc(F)cn2)cc1Nc1ccc(S(C)(=O)=O)cc1
Result: 6970

###

Please provide measured EC50 for the entries that follow.
- tgt: recombinantly expressed His-tagged protein corresponding to amino acids 575-869 of human Tyk2 (Homo sapiens, UniProt P29597)
- Construct: corresponding to amino acids 575-869 of human Tyk2
- Sequence (P29597 575-869): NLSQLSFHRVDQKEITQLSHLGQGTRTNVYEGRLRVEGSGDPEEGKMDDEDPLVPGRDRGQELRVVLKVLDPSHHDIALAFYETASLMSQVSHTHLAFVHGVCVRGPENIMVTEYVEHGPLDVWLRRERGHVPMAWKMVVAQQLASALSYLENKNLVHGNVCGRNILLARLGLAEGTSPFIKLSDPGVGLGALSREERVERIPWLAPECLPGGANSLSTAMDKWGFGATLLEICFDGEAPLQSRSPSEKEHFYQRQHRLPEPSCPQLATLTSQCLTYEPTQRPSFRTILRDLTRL
- measurement.description: Probe displacement assay (scintillation proximity, [3H] probe)
- measurement.setup: 2.5 nM Tyk2 (575-869), 40 nM radiolabeled probe, 30 minutes at room temperature
Number in nM, nothing else.

Request: Request the reported EC50 associated with CNC(=O)c1cnc(Nc2ccc(F)cn2)cc1Nc1ccc(N2CCOCC2)cc1
Result: 246

Request: Request the reported EC50 associated with CNC(=O)c1cnc(Nc2ccc(F)cn2)cc1Nc1cccc(C(N)=O)c1OC
Result: 5

Request: Request the reported EC50 associated with CNC(=O)c1cnc(Nc2ccc(F)cn2)cc1Nc1ccccc1CCO
Result: 14.8

Request: Request the reported EC50 associated with CNC(=O)c1cnc(Nc2ccc3ccccc3n2)cc1Nc1ccccc1C(N)=O
Result: 3.8

Request: Request the reported EC50 associated with CNC(=O)c1cnc(Nc2ccc(S(C)(=O)=O)cn2)cc1Nc1ccccc1S(C)(=O)=O
Result: 16.4

Request: Request the reported EC50 associated with CNC(=O)c1cnc(Nc2cc(C)c(F)cn2)cc1Nc1cccc(-c2cnn(C)c2)c1OC
Result: 6.5

Request: Request the reported EC50 associated with CNC(=O)c1cnc(Nc2cc(C)c(F)cn2)cc1Nc1cccc(-c2nnco2)c1OC
Result: 5.3

Request: Request the reported EC50 associated with CNC(=O)c1cnc(Nc2cc(Cl)ccn2)cc1Nc1cc(F)cc(F)c1OC
Result: 46.1

Request: Request the reported EC50 associated with CNC(=O)c1cnc(Nc2cccc(-n3ccccc3=O)n2)cc1Nc1ccc(F)cc1OC
Result: 779

Request: Request the reported EC50 associated with CNC(=O)c1cnc(Nc2cc(C)nc(C)n2)cc1Nc1cccc(-c2cnn(C)c2)c1OC
Result: 3.1

Request: Request the reported EC50 associated with CNC(=O)c1cnc(Nc2cc(C)nc(C)n2)cc1Nc1cc(F)cc(F)c1OC
Result: 6.3

Request: Request the reported EC50 associated with CNC(=O)c1cnc(Nc2ccc3ccccc3n2)cc1NC1CCCC1
Result: 633

Request: Request the reported EC50 associated with CNC(=O)c1cnc(Nc2ccc3ccccc3n2)cc1Nc1ccccc1S(C)(=O)=O
Result: 13.2

Request: Request the reported EC50 associated with CNC(=O)c1cnc(Nc2ccc(N3CCOCC3)cn2)cc1Nc1ccccc1C
Result: 291

Request: Request the reported EC50 associated with CNC(=O)c1cnc(Nc2ccc3ccccc3n2)cc1NC1CCCC1C(N)=O (stereo not drawn)
Result: 495

Request: Request the reported EC50 associated with CNC(=O)c1cnc(Nc2ccc(O)cn2)cc1Nc1ccccc1C(N)=O
Result: 22.7

Request: Request the reported EC50 associated with CNC(=O)c1cnc(Nc2cc(C)c(F)cn2)cc1Nc1cccc(C(=O)NCc2nccs2)c1OC
Result: 10.5

Request: Request the reported EC50 associated with CNC(=O)c1cnc(Nc2cc(OC(C)C)ncn2)cc1Nc1ccccc1S(C)(=O)=O
Result: 5.7
